# credit: patent US20210388087A1

Target: T1, Human CD137 ECD (human)
T1 construct: also called human CD137 extracellular domain; recombinant human CD137
T1 sequence (chain, as listed by the source limits assumed): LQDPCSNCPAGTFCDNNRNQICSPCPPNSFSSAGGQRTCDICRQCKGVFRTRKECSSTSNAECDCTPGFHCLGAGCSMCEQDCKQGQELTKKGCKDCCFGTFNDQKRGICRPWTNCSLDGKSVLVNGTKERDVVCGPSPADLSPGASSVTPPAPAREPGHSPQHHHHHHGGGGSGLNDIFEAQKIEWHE
Test: SPR Biacore T200, 37 C, Ab captured on anti-human Fc, antigen as analyte;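 note: recombinant human CD137 flowed over antibodies held by amine-coupled anti-human Fc on a CM4 chip, run in ACES pH 7.4 buffer with 150 mM NaCl and 0.05% Tween 20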
Would you mind telling me the reported pKd of each entry?
One number for each entry, as −log10 of the molar value.

Solved cases below.
binder	val
H1649L0943 (antibody, V domains shown, Dual-Ig, IgG; also called dBBDu183H1649/dBBDu072L0943) VH: QVQLVESGGGLVQPGRSLRLSCAASGFVFSNVWFHWVRQAPGKGLEWVAQIKDKYNAYADYYAPSVKERFTISRDDSKNSIYLQMNSLKTEDTAVYYCHYVHYASASTLLPAEGVDAWGQGTTVTVSS VL: DIVMTQSPLSLPVTPGEPASISCQPSEEVVHMNRNTYLHWYQQKPGQAPRLLIYKVSNLFPGVPDRFSGSGSGTDFTLKISRVEAEDVGVYYCAQGTHHPFTFGQGTKLEIK	7.48
H1652L0943 (antibody, V domains shown, Dual-Ig, IgG; also called dBBDu183H1652/dBBDu072L0943) VH: QVQLVESGGGLVQPGRSLRLSCAASGFVFSNVWFHWVRQAPGKGLEWVAQIKDYYNAYADYYAPSVEGRFTISRDDSKNSIYLQMNSLKTEDTAVYYCHYVHYASASTLLPAEGVDAWGQGTTVTVSS VL: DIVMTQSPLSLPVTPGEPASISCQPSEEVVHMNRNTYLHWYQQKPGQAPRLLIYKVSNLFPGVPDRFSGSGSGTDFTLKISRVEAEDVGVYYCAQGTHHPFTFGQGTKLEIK	7.44
H1647L0581 (antibody, V domains shown, Dual-Ig, IgG; also called dBBDu183H1647/dBBDu072L0581) VH: QVQLVESGGGLVQPGRSLRLSCAASGFKFSNTWFHWVRQAPGKGLEWVAQIKDYYNDYAAYYAPSVKGRFTISRDDSKNSIYLQMNSLKTEDTAVYYCHYVHYASASTLLPAEGVDAWGQGTTVTVSS VL: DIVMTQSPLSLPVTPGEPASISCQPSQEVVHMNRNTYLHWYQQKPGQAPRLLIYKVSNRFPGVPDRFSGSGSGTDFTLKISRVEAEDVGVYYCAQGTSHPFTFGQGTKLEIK	7.19
H0868L0581 (antibody, V domains shown, Dual-Ig, IgG; also called H868L581; dBBDu183H0868/dBBDu072L0581) VH: QVQLVESGGGLVQPGRSLRLSCAASGFKFSNVWMHWVRQAPGKGLEWVAQIKDKYNAYAAYYAPSVKGRFTISRDDSKNSIYLQMNSLKTEDTAVYYCHYVHYASASTLLPAFGVDAWGQGTTVTVSS VL: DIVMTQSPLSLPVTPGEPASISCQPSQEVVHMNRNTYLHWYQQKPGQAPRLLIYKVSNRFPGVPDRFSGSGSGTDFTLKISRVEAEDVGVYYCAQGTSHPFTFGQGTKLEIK	6.95
H1649L0581 (antibody, V domains shown, Dual-Ig, IgG; also called dBBDu183H1649/dBBDu072L0581) VH: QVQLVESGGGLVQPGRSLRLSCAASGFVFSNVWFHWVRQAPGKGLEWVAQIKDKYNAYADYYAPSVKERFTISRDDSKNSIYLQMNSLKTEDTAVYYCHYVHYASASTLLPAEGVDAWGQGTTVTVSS VL: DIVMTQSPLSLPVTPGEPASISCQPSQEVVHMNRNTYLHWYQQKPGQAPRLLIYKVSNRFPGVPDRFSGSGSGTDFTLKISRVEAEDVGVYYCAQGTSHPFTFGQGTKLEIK	7.37
H1673L0581 (antibody, V domains shown, Dual-Ig, IgG; also called dBBDu183H1673/dBBDu072L0581) VH: QVQLVESGGGLVQPGRSLRLSCAASGFVFSNVWFHWVRQAPGKGLEWVAQIKDKWNAYADYYAPSVKERFTISRDDSKNSIYLQMNSLKTEDTAVYYCHYIHYASASTLLPAEGIDAWGQGTTVTVSS VL: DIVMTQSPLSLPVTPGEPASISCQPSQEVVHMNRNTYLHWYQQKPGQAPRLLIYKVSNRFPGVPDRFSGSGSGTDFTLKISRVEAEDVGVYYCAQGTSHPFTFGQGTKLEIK	7.09

For each entry beneath this line, provide reported pKd.
1. H1610L0939 (antibody, V domains shown, Dual-Ig, IgG; also called H1610L939; dBBDu183H1610/dBBDu072L0939) VH: QVQLVESGGGLVQPGRSLRLSCAASGFVFSNVWMHWVRQAPGKGLEWVAQIKDKWNAYAAYYAPSVKGRFTISRDDSKNSIYLQMNSLKTEDTAVYYCHYIHYASASTLLPAEGIDAWGQGTTVTVSS VL: DIVMTQSPLSLPVTPGEPASISCQPSQEVVHMNRNTYLHWYQQKPGQAPRLLIYKVSNVFPGVPDRFSGSGSGTDFTLKISRVEAEDVGVYYCAQGTHHPFTFGQGTKLEIK
2. H2594L0581 (antibody, V domains shown, Dual-Ig, IgG; also called H2594L581; dBBDu183H2594/dBBDu072L0581) VH: QVQLVESGGGLVQPGRSLRLSCAASGFKFSNVWFHWVRQAPGKGLEWVAQIKDYYNAYAGYYHPSVKGRFTISRDDSKNSIYLQMNSLKTEDTAVYYCHYVHYAAASQLLPAEGVDAWGQGTTVTVSS VL: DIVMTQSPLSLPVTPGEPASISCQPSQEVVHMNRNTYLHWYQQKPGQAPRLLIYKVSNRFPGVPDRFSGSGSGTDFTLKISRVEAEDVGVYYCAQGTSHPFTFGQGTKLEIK
3. H2591L0581 (antibody, V domains shown, Dual-Ig, IgG; also called H2591L581; dBBDu183H2591/dBBDu072L0581) VH: QVQLVESGGGLVQPGRSLRLSCAASGFKFSNVWFHWVRQAPGKGLEWVAQIKDYYNAYAGYYHPSVKGRFTISRDDSKNSIYLQMNSLKTEDTAVYYCHYVHYAAASTLLPAEGVDAWGQGTTVTVSS VL: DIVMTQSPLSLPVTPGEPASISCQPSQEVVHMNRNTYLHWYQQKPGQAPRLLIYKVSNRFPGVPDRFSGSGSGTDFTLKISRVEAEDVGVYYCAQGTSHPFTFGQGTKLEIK
4. H1550L0918 (antibody, V domains shown, Dual-Ig, IgG; also called H1550L918; dBBDu183H1550/dBBDu072L0918) VH: QVQLVESGGGLVQPGRSLRLSCAASGFKFSNVWMHWVRQAPGKGLEWVAQIKDKYNAYAAYYAPSVKGRFTISRDDSKNSIYLQMNSLKTEDTAVYYCHYIHYASASTLLPAFGVDAWGQGTTVTVSS VL: DIVMTQSPLSLPVTPGEPASISCQPSQEVVHMNNVVYLHWYQQKPGQAPRLLIYKVSNRFPGVPDRFSGSGSGTDFTLKISRVEAEDVGVYYCAQGTSHPFTFGQGTKLEIK

1. 7.21
2. 7.11
3. 7.44
4. 6.28
